# ASSAY TEXT: Inhibition of [3H]choline brain uptake through choline transporter was determined in situ brain perfusion studies in Male Fischer-344 rats
EXPERIMENTAL ENDPOINT: Ki (µM)
Numbers only, in µM.

[[record]]
smiles = "C[N+](C)(CCO)c1ccc(F)cc1"
experimental_endpoint = "Ki"
numeric_result = 737

[[record]]
smiles = "C[N+](C)(C)CCCO"
experimental_endpoint = "Ki"
numeric_result = 162


# input for lookup
Input CC[N+](C)(C)CCO , output reported Ki.
94

###

# ASSAY TEXT: Inhibition of [3H]choline brain uptake through choline transporter was determined in situ brain perfusion studies in Male Fischer-344 rats
I'd appreciate it if you could supply pKi values for the items below.
Numbers only, as −log10 of the molar value.

In the examples that follow, each entry is paired with its recorded pKi.
[[record]]
molecule = "CC[N+](C)(C)C"
numeric_result = 2.33

[[record]]
molecule = "CC(O)C[N+](C)(C)C (stereo not drawn)"
numeric_result = 3.70

[[record]]
molecule = "CC(=O)C1=CCC(CCc2ccccc2)CC1 (stereo not drawn)"
numeric_result = 3.31

[[record]]
molecule = "CCC[N+](C)(C)CCO"
numeric_result = 3.72

[[record]]
molecule = "CC[N+](CC)(CC)CCO"
numeric_result = 2.72

[[record]]
molecule = "CCCCCCCCN1CCCCC1"
numeric_result = 4.49


Turning now to a further record.
# return recorded pKi for entry CCCC[N+](C)(C)CCO
4.40

The measurements presented in this section are drawn from BindingDB's records for doi:10.1016/j.bmcl.2004.04.020.
